Tested Target: T1, CBP KIX, wild type (Example 20) (UniProt P45481 586-665, limits assumed)
T1 construct: domain: KIX; also called wild type CBP KIX; CBP MX
T1 sequence (P45481 586-665 limits assumed): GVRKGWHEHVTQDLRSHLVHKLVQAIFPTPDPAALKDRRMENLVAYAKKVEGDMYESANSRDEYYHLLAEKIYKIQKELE
Method Summary: FP, fluorescein-labelled PPKID4^P variant titrated with CBP KIX
Square brackets hold non-standard residues; d marks the D form. Primed or numbered codes have the meaning given here. Ends that are not written are not given here. acetamidofluorescein″ = acetamidofluorescein (5-iodoacetamidofluorescein attached to the C-terminal Cys); pS = N[C@@H](COP(=O)(O)O)C(=O)O
Test Readout: pKd
Numbers only, as −log10 of the molar value.

Binder	Value Reported
GPSQATYPGDDAPVRRL[pS]FFYILLDLYLDAPGVC(acetamidofluorescein″)-NH2 (designed binder) [PPKID4^P P5A]	5.99
GPSQPTYAGDDAPVRRL[pS]FFYILLDLYLDAPGVC(acetamidofluorescein″)-NH2 (designed binder) [PPKID4^P P8A]	5.97
GASQPTYPGDDAPVRRL[pS]FFYILLDLYLDAPGVC(acetamidofluorescein″)-NH2 (designed binder) [PPKID4^P P2A]	6.06
GPSQPTYPGDDAPVRRA[pS]FFYILLDLYLDAPGVC(acetamidofluorescein″)-NH2 (designed binder) [PPKID4^P L17A]	6.17

Here's the next entry for you.
Fill in: pKd of GPSQPTYPGDDAPVRRL[pS]FFYILADLYLDAPGVC(acetamidofluorescein″)-NH2 (designed binder) [PPKID4^P L24A] is ___
5.94

Origin of values: patent US20110028686A1
